Each item that follows carries a reported IC50.
Molecular target: OATP2B1 (Homo sapiens)
Construct: expressed in transfected cells; host or cells: A431
Sequence (O94956 whole entry): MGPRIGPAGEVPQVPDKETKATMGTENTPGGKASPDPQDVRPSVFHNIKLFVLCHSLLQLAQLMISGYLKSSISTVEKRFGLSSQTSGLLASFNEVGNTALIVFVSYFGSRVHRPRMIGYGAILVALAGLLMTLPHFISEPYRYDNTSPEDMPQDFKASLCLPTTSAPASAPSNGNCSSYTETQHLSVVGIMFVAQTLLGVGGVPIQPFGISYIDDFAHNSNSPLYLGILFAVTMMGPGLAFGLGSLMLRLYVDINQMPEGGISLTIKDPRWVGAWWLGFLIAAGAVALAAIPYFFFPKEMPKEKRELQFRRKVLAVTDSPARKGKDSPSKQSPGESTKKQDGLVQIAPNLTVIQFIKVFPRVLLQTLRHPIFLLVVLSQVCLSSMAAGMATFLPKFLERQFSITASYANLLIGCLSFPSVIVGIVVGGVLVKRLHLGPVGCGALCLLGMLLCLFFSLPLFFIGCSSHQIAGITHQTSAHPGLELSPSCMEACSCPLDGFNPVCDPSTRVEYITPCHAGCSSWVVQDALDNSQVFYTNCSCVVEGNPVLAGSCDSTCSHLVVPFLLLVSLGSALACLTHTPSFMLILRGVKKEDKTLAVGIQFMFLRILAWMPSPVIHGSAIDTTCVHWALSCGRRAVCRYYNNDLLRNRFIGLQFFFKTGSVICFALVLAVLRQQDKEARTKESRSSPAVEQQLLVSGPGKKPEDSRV
Assay: OATP2B1 uptake assay (pyranine) in overexpressing A431 cells
Assay type: cell-based
Conditions: pyranine substrate, A431 cells, pH 5.5; read-out: estimated IC50, OATP2B1
PROPERTY: IC50

COMPOUND | PROPERTY | MEASURED_VALUE
O=c1nc(NO)ccn1[C@@H]1O[C@H](CO)[C@@H](O)[C@H]1O [EIDD-1931] | IC50 | > 200 µM
CC(C)C(=O)OC[C@H]1O[C@@H](n2ccc(NO)nc2=O)[C@H](O)[C@@H]1O [EIDD-2801, Molnupiravir] | IC50 | > 200 µM

The measurements presented in this section are drawn from paper PMC10379611.
